assay.system: Steroid 17-alpha-hydroxylase/17,20 lyase (Homo sapiens, UniProt P05093)
assay: Inhibition of CYP17 in human testicular microsomes using 17alpha-hydroxypregnenolone as substrate assessed as decrease in DHEA levels at 10 nM after 90 mins by ELISA relative to control
Design: species or system Testis
condition.context: 1.5 h
assay.readout: inhibition at 0.01 µM

Prompt: Which inhibition at 0.01 µM is listed for C[C@]12CCC(=O)NC[C@@H]1CC[C@@H]1[C@@H]2CC[C@]2(C)C(n3ccnn3)=CC[C@@H]12 ?
Response: 1 to 50%

Prompt: Which inhibition at 0.01 µM is listed for C[C@]12CCCCC1C(O)C[C@@H]1[C@@H]2CC[C@]2(C)C(n3ccnc3)=CC[C@@H]12 (stereo not given in full) ?
Response: 50 to 80%

Prompt: Which inhibition at 0.01 µM is listed for C[C@]12CC[C@H]3[C@@H](CCN4CCCCC[C@]34C)[C@@H]1CC=C2c1cccnc1 ?
Response: 1 to 50%

Prompt: Which inhibition at 0.01 µM is listed for Cc1cncc(C2=CC[C@H]3[C@@H]4CCN5C(=O)CCCC[C@]5(C)[C@H]4CC[C@]23C)c1 ?
Response: 50 to 80%

Prompt: Which inhibition at 0.01 µM is listed for C[C@]12CC[C@H]3[C@@H](CC[C@H]4CNC(=O)CC[C@@]43C)C1=CC=C2n1ccnc1 ?
Response: 50 to 80%

Prompt: Which inhibition at 0.01 µM is listed for C[C@]12CCNC(=O)C[C@@H]1CC[C@@H]1[C@@H]2CC[C@]2(C)C(n3ccnn3)=CC[C@@H]12 ?
Response: ≥ 80%

Prompt: Which inhibition at 0.01 µM is listed for CN1C(=O)COC[C@@]2(C)C1CC[C@@H]1[C@@H]2CC[C@]2(C)C(c3cccnc3)=CC[C@@H]12 (stereo not given in full) ?
Response: 50 to 80%

Prompt: Which inhibition at 0.01 µM is listed for C[C@]12CCOCC[C@@H]1CC[C@@H]1[C@@H]2CC[C@]2(C)C(c3cccnc3)=CC[C@@H]12 ?
Response: ≥ 80%

Prompt: Which inhibition at 0.01 µM is listed for CCc1cncc(C2=CC[C@H]3[C@@H]4CCN5CCCCC[C@]5(C)[C@H]4CC[C@]23C)c1 ?
Response: 1 to 50%

Prompt: Which inhibition at 0.01 µM is listed for COC1CC[C@@]2(C)[C@@H](CC[C@@H]3[C@@H]2CC[C@]2(C)C(n4ccnn4)=CC[C@@H]32)C1 (stereo not given in full) ?
Response: 1 to 50%

Prompt: Which inhibition at 0.01 µM is listed for Cc1cncc(C2=CC[C@H]3[C@@H]4CC=C5N(C)C(=O)CCC[C@]5(C)[C@H]4CC[C@]23C)c1 ?
Response: 50 to 80%

Prompt: Which inhibition at 0.01 µM is listed for C[C@]12CCNC(=O)C[C@@H]1CC[C@@H]1[C@@H]2CC[C@]2(C)C(n3ccnc3)=CC[C@@H]12 ?
Response: ≥ 80%

Prompt: Which inhibition at 0.01 µM is listed for CCOc1cncc(C2=CC[C@H]3[C@@H]4CCC5N(C)C(=O)COC[C@]5(C)[C@H]4CC[C@]23C)c1 (stereo not given in full) ?
Response: 1 to 50%

Prompt: Which inhibition at 0.01 µM is listed for Cc1cn(C2=CC[C@H]3[C@@H]4CCC5=CC(=O)NCC[C@]5(C)[C@H]4CC[C@]23C)cn1 ?
Response: 50 to 80%

Prompt: Which inhibition at 0.01 µM is listed for CCCOc1cncc(C2=CC[C@H]3[C@@H]4CCC5=CC(=O)NCC[C@]5(C)[C@H]4CC[C@]23C)c1 ?
Response: 50 to 80%

====

assay.system: Steroid 17-alpha-hydroxylase/17,20 lyase (Homo sapiens)
Sequence (P05093 whole entry): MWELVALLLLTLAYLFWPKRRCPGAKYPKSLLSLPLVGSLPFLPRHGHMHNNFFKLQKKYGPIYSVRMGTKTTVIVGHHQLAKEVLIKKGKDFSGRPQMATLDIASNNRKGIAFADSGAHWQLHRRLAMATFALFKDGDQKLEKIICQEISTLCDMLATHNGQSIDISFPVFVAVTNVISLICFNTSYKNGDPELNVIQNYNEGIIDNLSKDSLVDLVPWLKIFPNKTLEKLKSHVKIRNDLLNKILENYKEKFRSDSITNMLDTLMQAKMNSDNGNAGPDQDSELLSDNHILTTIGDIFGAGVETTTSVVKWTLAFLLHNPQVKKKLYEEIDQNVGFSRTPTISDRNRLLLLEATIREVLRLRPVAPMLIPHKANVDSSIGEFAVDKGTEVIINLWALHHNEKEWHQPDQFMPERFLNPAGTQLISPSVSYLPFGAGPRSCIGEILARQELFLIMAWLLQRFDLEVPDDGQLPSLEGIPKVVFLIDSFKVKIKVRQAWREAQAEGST
assay: Inhibition of CYP17 in human testicular microsomes using 17alpha-hydroxypregnenolone as substrate assessed as decrease in DHEA levels at 10 nM after 90 mins by ELISA relative to control
Design: species or system Testis
condition.context: 1.5 h
assay.readout: inhibition at 0.01 µM

Prompt: Which inhibition at 0.01 µM is listed for C[C@]12CCNCC[C@@H]1CC[C@@H]1[C@@H]2CC[C@]2(C)C(n3ccnn3)=CC[C@@H]12 ?
Response: 1 to 50%

Prompt: Which inhibition at 0.01 µM is listed for Cc1cncc(C2=CC[C@H]3[C@@H]4CC=C5CCCC[C@]5(C)[C@H]4CC[C@]23C)c1 ?
Response: 50 to 80%

Prompt: Which inhibition at 0.01 µM is listed for C[C@]12CC[C@H]3[C@@H](CC[C@H]4CNC(=O)CC[C@@]43C)C1=CC=C2n1ccnn1 ?
Response: 1 to 50%

Prompt: Which inhibition at 0.01 µM is listed for Cc1cncc(C2=CC[C@H]3[C@@H]4CC[C@H]5COC(=O)CC[C@]5(C)[C@H]4CC[C@]23C)c1 ?
Response: 1 to 50%

Prompt: Which inhibition at 0.01 µM is listed for C[C@]12CC[C@H]3[C@@H](CC=C4C[C@@H](O)CC[C@@]43C)C1=CC=C2n1ccnc1 ?
Response: ≥ 80%

Prompt: Which inhibition at 0.01 µM is listed for C[C@]12CCCCC[C@@H]1CC[C@@H]1[C@@H]2CC[C@]2(C)C(c3cccnc3)=CC[C@@H]12 ?
Response: 1 to 50%

Prompt: Which inhibition at 0.01 µM is listed for CCCOc1cncc(C2=CC[C@H]3[C@@H]4CCC5=CC(=O)N(C)CC[C@]5(C)[C@H]4CC[C@]23C)c1 ?
Response: 50 to 80%

Prompt: Which inhibition at 0.01 µM is listed for C[C@]12CC[C@H]3[C@@H](CCC4=CC(=O)CC[C@@]43C)C1=CC=C2c1cccnc1 ?
Response: ≥ 80%

Prompt: Which inhibition at 0.01 µM is listed for C[C@]12CC[C@H]3[C@@H](CCC4=CC(=O)CC[C@@]43C)C1=CC=C2n1ccnc1 ?
Response: ≥ 80%

Prompt: Which inhibition at 0.01 µM is listed for CCOc1cncc(C2=CC[C@H]3[C@@H]4CC[C@H]5CCOCC[C@]5(C)[C@H]4CC[C@]23C)c1 ?
Response: 50 to 80%

Prompt: Which inhibition at 0.01 µM is listed for Cc1cncc(C2=CC=C3[C@@H]4CCC5=CC(=O)N(C)CC[C@]5(C)[C@H]4CC[C@]23C)c1 ?
Response: 50 to 80%

Prompt: Which inhibition at 0.01 µM is listed for CC1C[C@H]2C3=CC=C(c4cccnc4)[C@@]3(C)CC[C@@H]2[C@@]2(C)C=CC(=O)C=C12 (stereo not given in full) ?
Response: ≥ 80%

Prompt: Which inhibition at 0.01 µM is listed for CN1CC=C2CC[C@@H]3[C@H](CC[C@]4(C)C(n5ccnc5)=CC[C@@H]34)[C@@]2(C)CC1 ?
Response: 1 to 50%

Prompt: Which inhibition at 0.01 µM is listed for C[C@]12CCNC(=O)C=C1CC[C@@H]1[C@@H]2CC[C@]2(C)C(c3cncnc3)=CC[C@@H]12 ?
Response: 50 to 80%

Prompt: Which inhibition at 0.01 µM is listed for C[C@]12CC[C@H]3[C@@H](CC=C4C[C@@H](O)CC[C@@]43C)C1=CC=C2c1cccnc1 ?
Response: 50 to 80%

====

Exercise: state measured half-life at 1 µM for each of the molecules provided.
assay: Half life in human liver microsomes at 1 uM by LC-MS/MS analysis

Prompt: Which half-life at 1 µM is listed for C[C@]12CC[C@H]3[C@@H](CCC4=CC(=O)NCC[C@@]43C)C1=CC=C2n1ccnc1 ?
Response: ≥ 50 min

Prompt: Which half-life at 1 µM is listed for C[C@]12CC[C@H]3[C@@H](CC=C4C[C@@H](O)CC[C@@]43C)C1=CC=C2c1cncc(F)c1 ?
Response: 1 to 50 min

Prompt: Which half-life at 1 µM is listed for COc1cncc(C2CC[C@H]3[C@@H]4CCC5=CC(=O)NCC[C@]5(C)[C@H]4CC[C@]23C)c1 (some centres not stated) ?
Response: 10 to 60 min

Prompt: Which half-life at 1 µM is listed for COC(=O)N[C@H]1CC[C@@]2(C)C(CC[C@H]3C4CC=C(c5cccnc5)[C@@]4(C)CC[C@@H]32)C1 (single isomer, unassigned) ?
Response: 1 to 50 min

Prompt: Which half-life at 1 µM is listed for CCOc1cncc(C2=CC[C@H]3[C@@H]4CC[C@H]5COCCC[C@]5(C)[C@H]4CC[C@]23C)c1 ?
Response: 1 to 10 min

Prompt: Which half-life at 1 µM is listed for CN1CC[C@@]2(C)C(=CC1=O)CCC1[C@@H]2CC[C@]2(C)C(c3cccnc3)=CC[C@@H]12 (single isomer, unassigned) ?
Response: 10 to 60 min

Prompt: Which half-life at 1 µM is listed for C[C@]12CC(O)CC1CC[C@@H]1[C@@H]2CC[C@]2(C)C(c3cccnc3)=CC[C@@H]12 (some centres not stated) ?
Response: 1 to 50 min
